SYSTEM TESTED: Adrenergic receptor alpha-1 (Rattus norvegicus, UniProt P15823+P23944+P43140)
METHOD DESCRIPTION: Ability to displace [3H]WB-4101 from rat brain alpha-1 adrenergic receptor
PROPERTY LABEL: IC50 (µM)

* COc1ccc([C@H](O)CN2CCN(c3cccccc3=O)CC2)cc1OC [CILADOPA] | 1.09
* COc1ccc(C(O)CN2CCN(c3cccccc3=O)CC2)cc1OC.Cl (centres undefined) | 1.07
* COc1ccc([C@@H](O)CN2CCN(c3cccccc3=O)CC2)cc1OC | 1.44
* NCCc1ccc(O)c(O)c1 [DOPAMINE] | 90
